Experiment: Cytotoxicity against human HCC2998 cells assessed as growth inhibition at 10 uM after 48 hrs by SRB assay
Type: functional
Conditions: HCC 2998, 48 h, read-out: GI
readout name: inhibition of growth at 10 µM (%)
One number for each entry, in %.

Batch request: inhibition of growth at 10 µM per item, same order as input.
1. C=C1CC[C@@H]2[C@](C)(COC(C)=O)[C@H](OC(C)=O)CC[C@@]2(C)[C@@H]1CC(NCCCC)C1=CCOC1=O (mixture of isomers)
2. C=C1CC[C@@H]2[C@](C)(COC(C)=O)[C@H](OC(C)=O)CC[C@@]2(C)[C@@H]1CC(NCc1cccc(Cl)c1)C1=CCOC1=O (mixture of isomers)
3. C=C1CC[C@@H]2[C@](C)(COC(C)=O)[C@H](OC(C)=O)CC[C@@]2(C)[C@@H]1CC(NCc1ccc(F)cc1)C1=CCOC1=O (mixture of isomers)
4. C=C1CC[C@@H]2[C@](C)(COC(C)=O)[C@H](OC(C)=O)CC[C@@]2(C)[C@@H]1CC(NC1CCCC1)C1=CCOC1=O (some centres not stated)

1: 7.9; 2: 15.4; 3: 10.7; 4: 9.65

---

Assay: Cytotoxicity against human Hs578T cells assessed as growth level at 10 uM after 48 hrs by SRB assay
Type: functional, Hs-578T
readout name: Activity
The reply should consist of the numeric value with the unit placed after it.

Examples with their reported Activity follow.
C=C1CC[C@@H]2[C@](C)(COC(C)=O)[C@H](OC(C)=O)CC[C@@]2(C)[C@@H]1CC(NCc1ccccc1)C1=CCOC1=O (mixture of isomers)
86.43%
C=C1CC[C@@H]2[C@](C)(COC(C)=O)[C@H](OC(C)=O)CC[C@@]2(C)[C@@H]1CC(NCCCCCCCCCCCCCCCCCC)C1=CCOC1=O (mixture of isomers)
103.17%
C=C1CC[C@@H]2[C@](C)(COC(C)=O)[C@H](OC(C)=O)CC[C@@]2(C)[C@@H]1CC(NCCCCCCCC)C1=CCOC1=O (mixture of isomers)
83.08%
C=C1CC[C@@H]2[C@](C)(COC(C)=O)[C@H](OC(C)=O)CC[C@@]2(C)[C@@H]1CC(NCc1cccc(Cl)c1)C1=CCOC1=O (mixture of isomers)
94.35%
C=C1CC[C@@H]2[C@](C)(COC(C)=O)[C@H](OC(C)=O)CC[C@@]2(C)[C@@H]1CC(NCCCC)C1=CCOC1=O (mixture of isomers)
97.68%
C=C1CC[C@@H]2[C@](C)(COC(C)=O)[C@H](OC(C)=O)CC[C@@]2(C)[C@@H]1CC(NCc1ccc(F)cc1)C1=CCOC1=O (mixture of isomers)
72.47%

Batch request: Activity per item, same order as input.
1. C=C1CC[C@@H]2[C@](C)(COC(C)=O)[C@H](OC(C)=O)CC[C@@]2(C)[C@@H]1CC(Sc1ccccc1)C1=CCOC1=O (mixture of isomers)
2. C=C1CC[C@@H]2[C@](C)(COC(C)=O)[C@H](OC(C)=O)CC[C@@]2(C)[C@@H]1CC(NC1CC1)C1=CCOC1=O (mixture of isomers)

54.23%
110.62%

---

I'd appreciate it if you could supply inhibition of growth at 10 µM values for the items below.
Test: Cytotoxicity against human SF268 cells assessed as growth inhibition at 10 uM after 48 hrs by SRB assay
Assay type: functional
Details: SF-268, 48 h, read-out: GI
Answers are plain numbers, in %.

Examples with their reported inhibition of growth at 10 µM follow.
C=C1CC[C@@H]2[C@](C)(COC(C)=O)[C@H](OC(C)=O)CC[C@@]2(C)[C@@H]1CC(NC1CCCC1)C1=CCOC1=O (stereo not given in full)
23.3
C=C1CC[C@@H]2[C@](C)(COC(C)=O)[C@H](OC(C)=O)CC[C@@]2(C)[C@@H]1CC(NCc1ccc(F)cc1)C1=CCOC1=O (mixture of isomers)
37.4
C=C1CC[C@@H]2[C@](C)(COC(C)=O)[C@H](OC(C)=O)CC[C@@]2(C)[C@@H]1CC(NCc1ccccc1)C1=CCOC1=O (mixture of isomers)
37.9

Batch request: inhibition of growth at 10 µM per item, same order as input.
1. C=C1CC[C@@H]2[C@](C)(COC(C)=O)[C@H](OC(C)=O)CC[C@@]2(C)[C@@H]1C/C=C1/C(=O)OC[C@H]1OC(C)=O
2. C=C1CC[C@@H]2[C@](C)(COC(C)=O)[C@H](OC(C)=O)CC[C@@]2(C)[C@@H]1CC(NCCCCCCCC)C1=CCOC1=O (mixture of isomers)

12.9
32.2

---

I'd appreciate it if you could supply Activity values for the items below.
Tested on: MDA-MB-468
Assay: Cytotoxicity against human MDA-MB-468 cells assessed as growth level at 10 uM after 48 hrs by SRB assay
Format: functional
Give bare numbers, in %.

C=C1CC[C@@H]2[C@](C)(COC(C)=O)[C@H](OC(C)=O)CC[C@@]2(C)[C@@H]1CC(Nc1ccc(S(=O)(=O)NC(C)=O)cc1)C1=CCOC1=O (mixture of isomers)
-53.94
C=C1CC[C@@H]2[C@](C)(COC(C)=O)[C@H](OC(C)=O)CC[C@@]2(C)[C@@H]1CC(NCCCC)C1=CCOC1=O (mixture of isomers)
66.18
C=C1CC[C@@H]2[C@](C)(COC(C)=O)[C@H](OC(C)=O)CC[C@@]2(C)[C@@H]1CC(NCCCCCCCCCCCCCCCCCC)C1=CCOC1=O (mixture of isomers)
99.82

Batch request: Activity per item, same order as input.
1. C=C1CC[C@@H]2[C@](C)(COC(C)=O)[C@H](OC(C)=O)CC[C@@]2(C)[C@@H]1CC(NC1CCCC1)C1=CCOC1=O (some centres not stated)
2. C=C1CC[C@@H]2[C@](C)(COC(C)=O)[C@H](OC(C)=O)CC[C@@]2(C)[C@@H]1CC(NCc1ccccc1)C1=CCOC1=O (mixture of isomers)
3. C=C1CC[C@@H]2[C@](C)(COC(C)=O)[C@H](OC(C)=O)CC[C@@]2(C)[C@@H]1CC(NCCCCCCCC)C1=CCOC1=O (mixture of isomers)

1. 34.72
2. 22.86
3. 32.04

---

I'd appreciate it if you could supply Activity values for the items below.
Test: Cytotoxicity against human LOXIMVI cells assessed as growth level at 10 uM after 48 hrs by SRB assay
Type: functional, LOX IMVI
Numbers only, in %.

C=C1CC[C@@H]2[C@](C)(COC(C)=O)[C@H](OC(C)=O)CC[C@@]2(C)[C@@H]1CC(NCCCCCCCC)C1=CCOC1=O (mixture of isomers)
53.89

Batch request: Activity per item, same order as input.
1. C=C1CC[C@@H]2[C@](C)(COC(C)=O)[C@H](OC(C)=O)CC[C@@]2(C)[C@@H]1CC(Nc1ccc(S(=O)(=O)NC(C)=O)cc1)C1=CCOC1=O (mixture of isomers)
2. C=C1CC[C@@H]2[C@](C)(COC(C)=O)[C@H](OC(C)=O)CC[C@@]2(C)[C@@H]1CC(NC1CCCC1)C1=CCOC1=O (some centres undefined)
3. C=C1CC[C@@H]2[C@](C)(COC(C)=O)[C@H](OC(C)=O)CC[C@@]2(C)[C@@H]1CC(NCCCC)C1=CCOC1=O (mixture of isomers)
4. C=C1CC[C@@H]2[C@](C)(COC(C)=O)[C@H](OC(C)=O)CC[C@@]2(C)[C@@H]1CC(NCc1ccc(F)cc1)C1=CCOC1=O (mixture of isomers)
5. C=C1CC[C@@H]2[C@](C)(COC(C)=O)[C@H](OC(C)=O)CC[C@@]2(C)[C@@H]1CC(NCc1cccc(Cl)c1)C1=CCOC1=O (mixture of isomers)
6. C=C1CC[C@@H]2[C@](C)(COC(C)=O)[C@H](OC(C)=O)CC[C@@]2(C)[C@@H]1CC(NCc1ccccc1)C1=CCOC1=O (mixture of isomers)
7. C=C1CC[C@@H]2[C@](C)(COC(C)=O)[C@H](OC(C)=O)CC[C@@]2(C)[C@@H]1CC(Sc1ccccc1)C1=CCOC1=O (mixture of isomers)

1. -85.84
2. 68.48
3. 90.39
4. 9.33
5. 12.71
6. 44.58
7. -83.89

Using the record for C=C1CC[C@@H]2[C@](C)(CO)[C@H](O)CC[C@@]2(C)[C@@H]1C/C=C1/C(=O)OC[C@H]1O [ANDROGRAPHOLIDE] , state its measured Activity. 21.84

---

Tested on: NCI-H23
Assay: Cytotoxicity against human NCI-H23 cells assessed as growth level at 10 uM after 48 hrs by SRB assay
Type: functional
I'd appreciate it if you could supply Activity values for the items below.
Answers are plain numbers, in %.

Examples with their reported Activity follow.
C=C1CC[C@@H]2[C@](C)(COC(C)=O)[C@H](OC(C)=O)CC[C@@]2(C)[C@@H]1CC(NCc1ccccc1)C1=CCOC1=O (mixture of isomers)
57.36
C=C1CC[C@@H]2[C@](C)(COC(C)=O)[C@H](OC(C)=O)CC[C@@]2(C)[C@@H]1CC(NCc1ccc(F)cc1)C1=CCOC1=O (mixture of isomers)
57.85
C=C1CC[C@@H]2[C@](C)(COC(C)=O)[C@H](OC(C)=O)CC[C@@]2(C)[C@@H]1CC(NC1CCCC1)C1=CCOC1=O (some centres undefined)
62.53

# context switch: different compound, same Activity
Using the record for C=C1CC[C@@H]2[C@](C)(COC(C)=O)[C@H](OC(C)=O)CC[C@@]2(C)[C@@H]1CC(Sc1ccccc1)C1=CCOC1=O (mixture of isomers) , state its measured Activity. 24.46
